Some binders, each annotated with its measured koff.
Target: T1, biotinylated CD3 epsilon:delta heterodimer protein (Amsbio AMS.CDD-H52WO) (Homo sapiens (Human), UniProt P07766 23-126; P04234 22-105)
T1 construct: also called CD3 heterodimer
Experiment: BLI (Octet), CD3 on SA sensor, Fab analyte;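 note: biolayer interferometry with biotinylated CD3 epsilon:delta captured on streptavidin sensors, Fab analyte at several concentrations up to 300 nM, 100 s association then 300 s dissociation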
Value expressed in s⁻¹; do not type the unit.

binder	readout_units	koff
huSP34.7.2 Fab-HF (Fab, V domains shown, also called HC7+LC2) VH: EVQLVESGGGLVQPGGSLRLSCAASGFTFSDYAMNWVRQAPGKGLEWVGRTRSKYNNYATYYAASVKGRFTISRDDSKNSLYLQMNSLKTEDTAVYYCVRHGNFGNSYVSWFAVWGQGTLVTVSS VL: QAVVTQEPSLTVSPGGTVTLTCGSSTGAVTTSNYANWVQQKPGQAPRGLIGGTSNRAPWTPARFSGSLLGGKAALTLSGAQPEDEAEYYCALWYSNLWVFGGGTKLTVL	s⁻¹	0.155

Turning now to a further record.
Please fill in: koff reported for huSP34.4.2 Fab-HF (Fab, V domains shown, also called HC4+LC2) VH: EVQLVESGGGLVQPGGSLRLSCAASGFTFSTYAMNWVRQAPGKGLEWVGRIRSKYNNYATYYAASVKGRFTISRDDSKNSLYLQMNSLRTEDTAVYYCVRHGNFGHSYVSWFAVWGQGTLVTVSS VL: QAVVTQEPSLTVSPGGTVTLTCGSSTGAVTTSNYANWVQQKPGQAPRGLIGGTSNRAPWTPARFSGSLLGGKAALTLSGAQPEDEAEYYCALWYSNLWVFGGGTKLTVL = 0.0144
